Where do the numbers come from? From patent US9409952B2.

Each entry below carries its reported microsomal CLint at 1 uM.
assay: Metabolic stability in human hepatic microsome; format: in vitro ADME; conditions: microsomes, pH 7.4; human hepatic microsome, NADPH(+); read-out: CL NADPH(+)
Starred links: 1 amine or outer side, 2 acyl side, 3 side chain; linkers in the order of their positions; H or OH if unused. Positions of bridges follow the written chain, without caps; N, C: chain ends. Non-standard residues stand in square brackets, D forms with d. Residues, ends and D or L forms follow the SMILES beside them. *: point of attachment. NEtPhe = CCN[C@@H](Cc1ccccc1)C(=O)O; NMeF = CN[C@@H](Cc1ccccc1)C(=O)O; NMeI = CC[C@H](C)[C@H](NC)C(=O)O; NMeβAla = CN(CCC(=O)[*:2])[*:1]; NMeL = CN[C@@H](CC(C)C)C(=O)O; NMeV = CN[C@H](C(=O)O)C(C)C; Piperidide = C1CCN(*)CC1; dNMeA = CN[C@H](C)C(=O)O; β3hA = C[C@H](N)CC(=O)O; Sar = CNCC(=O)O; tBu = CC(C)(C)*
Write the answer as a number in µL/min/mg, unit excluded.

# MOLECULE, microsomal CLint at 1 uM [µL/min/mg]
measured = [
    ("CC(C)C[C@H]1C(=O)N[C@@H](C)CC(=O)N(C)[C@H](C)C(=O)N(C)[C@@H](Cc2ccccc2)C(=O)N(C)[C@@H](CC(C)C)C(=O)N[C@@H]([C@@H](C)O)C(=O)N(C)CC(=O)N[C@@H](COC(C)(C)C)C(=O)N1C [DP-797] (cyclo([NMeF][NMeL]T[Sar]S(tBu)[NMeL][β3hA][dNMeA]))", 91),
    ("CC[C@H](C)[C@H]1C(=O)N(C)[C@@H](CC(C)C)C(=O)N[C@H](C(=O)N2CCCCC2)CC(=O)N(C)CC(=O)N[C@@H](CC(C)C)C(=O)N[C@@H]([C@@H](C)O)C(=O)N(C)CC(=O)N(C)[C@@H](Cc2ccccc2)C(=O)N[C@@H](C)C(=O)N(CC)[C@@H](Cc2ccccc2)C(=O)N[C@@H](CC(C)C)C(=O)N1C [DP-638] ([Sar]LT[Sar][NMeF]A[NEtPhe]L[NMeI][NMeL]D-Piperidide; lactam N-11)", 47),
]

From here, focus on the item given below.
// sample CC[C@H](C)[C@@H]1NC(=O)CCN(C)C(=O)C[C@@H](C(=O)N2CCCCC2)NC(=O)[C@H](Cc2ccccc2)N(C)C(=O)[C@H](CC(C)C)NC(=O)[C@H](CC(C)C)N(C)C(=O)[C@H](CC(C)C)NC(=O)[C@H]([C@@H](C)O)NC(=O)[C@H](Cc2ccccc2)NC(=O)[C@H](C(C)C)N(C)C1=O [DP-425] ([NMeβAla]I[NMeV]FTL[NMeL]L[NMeF]D-Piperidide; lactam N-10) , its microsomal CLint at 1 uM was 150

---

Each entry below carries its reported microsomal CLint at 1 uM.
assay: Metabolic stability in human hepatic microsome; format: in vitro ADME; conditions: human, microsomes, pH 7.4, CL NADPH(+)
Starred links: 1 amine or outer side, 2 acyl side, 3 side chain; linkers in the order of their positions; H or OH if unused. Positions of bridges follow the written chain, without caps; N, C: chain ends. Non-standard residues stand in square brackets, D forms with d. Residues, ends and D or L forms follow the SMILES beside them. ξ: configuration not given here. *: point of attachment. Phe(3-(CH2)4CO) = O=C([C@H](Cc1cccc(CCCCC(=O)[*:3])c1)N[*:1])[*:2]; NMeF = CN[C@@H](Cc1ccccc1)C(=O)O; NMeI = CC[C@H](C)[C@H](NC)C(=O)O; NMeβAla = CN(CCC(=O)[*:2])[*:1]; NMeL = CN[C@@H](CC(C)C)C(=O)O; NMeV = CN[C@H](C(=O)O)C(C)C; NMeA = CN[C@@H](C)C(=O)O; Piperidide = C1CCN(*)CC1; ξL = CC(C)CC(N)C(=O)O; Sar = CNCC(=O)O
Write the answer as a number in µL/min/mg, unit excluded.

Here are 4 compounds together with their reported answers.
# COMPOUND, UNITS LABEL, microsomal CLint at 1 uM
data = [
    ("CC(C)C[C@H]1C(=O)N[C@H](C(=O)N2CCCCC2)Cc2cccc(c2)CCCCC(=O)N(C)[C@@H](Cc2ccccc2)C(=O)NCC(=O)N(C)[C@@H](Cc2ccccc2)C(=O)N(C)[C@@H](CC(C)C)C(=O)N(C)[C@@H](CC(C)C)C(=O)N1C [DP-844] ([NMeF]G[NMeF][NMeL][NMeL][NMeL][Phe(3-(CH2)4CO)]-Piperidide; lactam N-7)", "µL/min/mg", 356),
    ("CC[C@H](C)[C@@H]1NC(=O)[C@H](Cc2cccc(Cl)c2)N(C)C(=O)[C@H](CC(C)C)N(C)C(=O)C[C@@H](C(=O)N2CCCCC2)NC(=O)[C@H](CC(C)C)N(C)C(=O)[C@H](CC(C)C)N(C)C(=O)[C@H](CC(C)C)NC(=O)[C@H](C)N(C)C(=O)[C@@H](NC(=O)[C@H](CC(C)C)N(C)C(=O)[C@@H]2CCCN2C(=O)CO)CCCCNC1=O", "µL/min/mg", 38),
    ("CC[C@H](C)[C@@H]1NC(=O)[C@H](Cc2ccccc2)N(C)C(=O)[C@H](Cc2ccccc2)NC(=O)[C@H](CC(C)C)NC(=O)[C@H](CC(C)C)N(C)C(=O)[C@H](C)N(C)C(=O)[C@H](C(C)C)NC(=O)[C@H](C)NC(=O)C[C@@H](C(=O)N2CCCCC2)NC(=O)[C@H](CC(C)C)N(C)C(=O)[C@H]([C@@H](C)O)NC(=O)[C@@H]2CCCN2C1=O [DP-25] (AV[NMeA][NMeL]LF[NMeF]IPT[NMeL]D-Piperidide; lactam N-12)", "µL/min/mg", 24),
    ("CC[C@H](C)[C@H](NC(=O)[C@@H]1CC(=O)N[C@@H](C)C(=O)N[C@@H](CC(C)C)C(=O)N2CCC[C@H]2C(=O)N[C@@H](C)C(=O)N[C@@H](CC(C)C)C(=O)N(C)CC(=O)N[C@@H]([C@@H](C)O)C(=O)N[C@@H](Cc2ccccc2)C(=O)N[C@@H](CC(C)C)C(=O)N(C)[C@@H](Cc2ccccc2)C(=O)N[C@@H](C(C)C)C(=O)N1)C(=O)N1CCCCC1 [DP-40] (ALPAL[Sar]TFL[NMeF]VDI-Piperidide; lactam N-12)", "µL/min/mg", 38),
]

From here, focus on the item given below.
// sample CC[C@H](C)[C@H]1C(=O)N(C)[C@@H](Cc2ccccc2)C(=O)N[C@H](C(=O)N2CCCCC2)CC(=O)N(C)CCC(=O)NC(CC(C)C)C(=O)N(C)[C@@H](Cc2ccccc2)C(=O)N(C)[C@@H](CC(C)C)C(=O)N(C)[C@@H](C(C)C)C(=O)N[C@@H](C)C(=O)N(C)[C@@H](C)C(=O)N[C@@H]([C@@H](C)O)C(=O)N(C)CC(=O)N1C (stereo partly drawn) [DP-61] ([NMeβAla][ξL][NMeF][NMeL][NMeV]A[NMeA]T[Sar][NMeI][NMeF]D-Piperidide; lactam N-12) , its microsomal CLint at 1 uM was 47

---

assay: PAMPA (parallel artificial membrane permeability assay); assay type: in vitro ADME; details: PAMPA, pH 6.5
Positions of bridges follow the written chain, without caps; N, C: chain ends. Non-standard residues stand in square brackets, D forms with d. Residues, ends and D or L forms follow the SMILES beside them. *: point of attachment. NMePhe(3-Cl) = CN[C@@H](Cc1cccc(Cl)c1)C(=O)O; Lys(Me2) = CN(C)CCCC[C@H](N)C(=O)O; NMeF = CN[C@@H](Cc1ccccc1)C(=O)O; NMeI = CC[C@H](C)[C@H](NC)C(=O)O; NMeL = CN[C@@H](CC(C)C)C(=O)O; NMeA = CN[C@@H](C)C(=O)O; Piperidide = C1CCN(*)CC1; β3hA = C[C@H](N)CC(=O)O; Sar = CNCC(=O)O; tBu = CC(C)(C)*
Each entry below carries its reported Papp at 18 hours, 50 µM.
Write the answer as a number in ×10⁻⁶ cm/s, unit excluded.

Here are 5 compounds together with their reported answers.
# COMPOUND, MEASUREMENT TYPE, UNITS LABEL, RECORDED MEASUREMENT
measured = [
    ("CC[C@H](C)[C@H]1C(=O)N(C)[C@@H](C)C(=O)N(C)[C@@H](Cc2ccccc2)C(=O)N[C@@H]([C@@H](C)O)C(=O)N(C)[C@@H](Cc2ccccc2)C(=O)N(C)[C@@H](CC(C)C)C(=O)N2CCC[C@H]2C(=O)N[C@@H](C)CC(=O)N[C@@H](C)C(=O)NCC(=O)N(C)[C@@H](CC(C)C)C(=O)N1C [DP-767] (cyclo(AG[NMeL][NMeI][NMeA][NMeF]T[NMeF][NMeL]P[β3hA]))", "Papp at 18 hours, 50 µM", "×10⁻⁶ cm/s", 30),
    ("CC(C)C[C@H]1C(=O)N[C@@H](COC(C)(C)C)C(=O)N[C@H](C(=O)N2CCCCC2)CC(=O)N[C@@H](C)C(=O)N(C)[C@@H](C)C(=O)N(C)[C@@H](Cc2ccccc2)C(=O)N(C)[C@@H](CC(C)C)C(=O)N[C@@H]([C@@H](C)O)C(=O)N(C)CC(=O)N1C [DP-38] (A[NMeA][NMeF][NMeL]T[Sar][NMeL]S(tBu)D-Piperidide; lactam N-9)", "Papp at 18 hours, 50 µM", "×10⁻⁶ cm/s", 16),
    ("CC[C@H](C)[C@H]1C(=O)N[C@H](C(=O)N2CCCCC2)CC(=O)N[C@@H](C)C(=O)N(C)[C@@H](Cc2ccccc2)C(=O)N(C)[C@@H](CC(C)C)C(=O)N[C@@H]([C@@H](C)O)C(=O)N(C)CC(=O)N(C)[C@@H](CC(C)C)C(=O)N[C@@H](COC(C)(C)C)C(=O)N1C [DP-37] (A[NMeF][NMeL]T[Sar][NMeL]S(tBu)[NMeI]D-Piperidide; lactam N-9)", "Papp at 18 hours, 50 µM", "×10⁻⁶ cm/s", 31),
    ("CC(C)C[C@@H]1NC(=O)[C@H](CCCCN(C)C)NC(=O)[C@@H]2CCCN2C(=O)[C@H](C)NC(=O)[C@H](CC(C)C)N(C)C(=O)[C@H](Cc2ccccc2)NC(=O)[C@H](CC(C)C)N(C)C(=O)[C@H](CC(C)C)N(C)C(=O)[C@H](Cc2ccccc2)NC(=O)CN(C)C(=O)C[C@@H](C(=O)N(C)[C@@H](Cc2ccccc2)C(=O)N[C@@H](C)C(=O)N2CCCCC2)NC1=O [DP-593] ([Sar]F[NMeL][NMeL]F[NMeL]AP[Lys(Me2)]LD[NMeF]A-Piperidide; lactam N-11)", "Papp at 18 hours, 50 µM", "×10⁻⁶ cm/s", 1.1),
    ("CC[C@H](C)[C@H]1C(=O)N[C@@H]([C@@H](C)O)C(=O)N(C)[C@@H](C)C(=O)N(C)[C@@H](CC(C)C)C(=O)N[C@H](C(=O)N2CCCCC2)CC(=O)N(C)CC(=O)N(C)[C@@H](CC(C)C)C(=O)N[C@@H](CC(C)C)C(=O)N(C)[C@@H](Cc2ccccc2)C(=O)N[C@@H](COC(C)(C)C)C(=O)N(C)[C@@H](Cc2ccccc2)C(=O)N1C [DP-69] ([Sar][NMeL]L[NMeF]S(tBu)[NMeF][NMeI]T[NMeA][NMeL]D-Piperidide; lactam N-11)", "Papp at 18 hours, 50 µM", "×10⁻⁶ cm/s", 21),
]

From here, focus on the item given below.
// sample CC[C@H](C)[C@@H]1NC(=O)[C@H](CC(C)C)N(C)C(=O)[C@H](Cc2ccccc2)N(C)C(=O)[C@@H](C(C)C)NC(=O)C[C@H](C)NC(=O)[C@H](CC(C)C)N(C)C(=O)[C@H](C)N(C)C(=O)[C@H]([C@@H](C)O)NC(=O)[C@H](Cc2cccc(Cl)c2)N(C)C(=O)[C@H](CC(C)C)N(C)C1=O [DP-782] (cyclo(I[NMeL][NMePhe(3-Cl)]T[NMeA][NMeL][β3hA][dV][NMeF][NMeL])) , its Papp at 18 hours, 50 µM was 10
